The reported measurements were obtained from ChEMBL document CHEMBL2406983.

target: 5-hydroxytryptamine receptor 6 (Homo sapiens, UniProt P50406); experiment: Antagonist activity at human 5-HT6 receptor expressed in human HeLa cells assessed as inhibition of 5-HT-induced cAMP accumulation at 10 uM pretreated for 10 mins before 5-HT addition measured after 30 mins; format: functional, cell-based
Sequence (P50406 whole entry): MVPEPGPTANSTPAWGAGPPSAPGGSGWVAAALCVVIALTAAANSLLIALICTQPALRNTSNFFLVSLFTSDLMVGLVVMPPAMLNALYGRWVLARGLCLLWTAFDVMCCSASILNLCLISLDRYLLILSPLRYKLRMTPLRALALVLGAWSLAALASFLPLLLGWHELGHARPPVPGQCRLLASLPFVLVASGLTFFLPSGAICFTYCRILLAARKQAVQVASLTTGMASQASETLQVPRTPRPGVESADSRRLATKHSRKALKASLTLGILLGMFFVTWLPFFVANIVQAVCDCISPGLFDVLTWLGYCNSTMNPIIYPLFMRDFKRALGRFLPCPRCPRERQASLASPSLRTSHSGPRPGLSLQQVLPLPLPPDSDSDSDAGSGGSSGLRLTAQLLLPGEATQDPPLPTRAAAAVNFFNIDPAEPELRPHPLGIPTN
Listing of entries alongside the reported inhibition.
Readout Label: inhibition (%)

>>> reading("Cc1ccc(N2CCc3c(NS(=O)(=O)c4ccc(F)cc4)n[nH]c3C2=O)cc1")
67.9
>>> reading("COc1ccc(N2CCc3c(NS(=O)(=O)c4ccccc4)n[nH]c3C2=O)cc1")
30.6
>>> reading("CC(C)(C)c1ccc(S(=O)(=O)Nc2n[nH]c3c2CCN(CC2CCNCC2)C3=O)cc1")
11.5
>>> reading("COc1ccc(S(=O)(=O)Nc2n[nH]c3c2CCN(C2CCNCC2)C3=O)cc1")
26.1
